For each of the molecules below, state its IC50.
Target: human μ-calpain (Homo sapiens)
Kindly format the answer as number then unit.

Solved cases below.
- MOLECULE: "CCNC(=O)C(=O)[C@H](Cc1ccc(Br)cc1)NC(=O)[C@@H](NC(=O)CCCCC1CCSS1)C(C)C (stereo partly shown)"
  ASSAY RESULT: "60 nM"
- MOLECULE: "CCNC(=O)C(=O)[C@H](Cc1ccc(C)cc1)NC(=O)[C@H](CC(C)C)NC(=O)CCCCC1CCSS1 (stereo partly shown)"
  ASSAY RESULT: "30 nM"
- MOLECULE: "CCNC(=O)C(=O)[C@H](CC1CCCCC1)NC(=O)[C@@H](NC(=O)CCCCC1CCSS1)C(C)C (stereo partly shown)"
  ASSAY RESULT: "250 nM"

Turning now to a further molecule:
Provide measured IC50 value, entry: CCNC(=O)C(=O)[C@H](Cc1ccc(OC)cc1)NC(=O)[C@@H](NC(=O)CCCCC1CCSS1)C(C)C (stereo partly shown)
400 nM

###

Tested on: cellular calpains in C2C12 myoblasts
Experiment: Calpain inhibition assay in C2C12 myoblasts
Type: cell-based
Details: 2 h incubation, calcium ionophore Br-A-23187, read-out: Calp I IC50 Myoblast
Would you mind telling me the reported pIC50 of each entry?
One number for each entry, as −log10 of the molar value.

- COMPOUND: "Cc1ccc(S(=O)(=O)CNC(=O)C(=O)[C@H](Cc2ccc(Cl)cc2)NC(=O)[C@@H](NC(=O)CCCCC2CCS[S+]2[O-])C(C)C)cc1 (stereo partly drawn)"
  pIC50: 5.92
- COMPOUND: "CCNC(=O)C(=O)[C@H](Cc1ccc(Cl)cc1)NC(=O)[C@@H](NC(=O)CCNC(=O)CCCCC1CCS[S+]1[O-])C(C)C (stereo partly drawn)"
  pIC50: 4.40
- COMPOUND: "Cc1ccc(S(=O)(=O)CNC(=O)C(=O)[C@H](Cc2ccccc2)NC(=O)[C@@H](NC(=O)CCCCC2CCSS2)C(C)C)cc1 (stereo partly drawn)"
  pIC50: 6.35
- COMPOUND: "CCNC(=O)C(=O)[C@H](Cc1ccc(C#N)cc1)NC(=O)[C@H](CC(C)C)NC(=O)CCCCC1CCS[S+]1[O-] (stereo partly drawn)"
  pIC50: 5.60
- COMPOUND: "CCNC(=O)C(=O)[C@H](Cc1ccc(OC)cc1)NC(=O)[C@H](CC(C)C)NC(=O)CCCCC1CCS[S+]1[O-] (stereo partly drawn)"
  pIC50: 5.60

The record that follows has no pIC50 shown yet.
Recall and state the measured pIC50 for CCNC(=O)C(=O)[C@H](Cc1ccc(OC)cc1)NC(=O)[C@@H](NC(=O)c1ccccc1NC(=O)CCCCC1CCS[S+]1[O-])C(C)C (stereo partly drawn) .
5.92

###

The next entries give measured IC50 for 20S Proteasome (Oryctolagus cuniculus, UniProt G1T4Q9).
Numbers only, in µM.

- COMPOUND: "CCNC(=O)C(=O)[C@H](Cc1ccc(Br)cc1)NC(=O)[C@@H](NC(=O)CCCCC1CCSS1)C(C)C (stereo partly drawn)"
  IC50 / µM: 0.18
- COMPOUND: "CCNC(=O)C(=O)[C@H](Cc1ccc(Br)cc1)NC(=O)[C@H](CC(C)C)NC(=O)CCCCC1CCS[S+]1[O-] (stereo partly drawn)"
  IC50 / µM: 0.4

Go through the items and report each one's IC50.
1. CCNC(=O)C(=O)[C@H](Cc1ccc(C)cc1)NC(=O)[C@@H](NC(=O)CCCCC1CCSS1)C(C)C (stereo partly drawn)
2. CCNC(=O)C(=O)[C@H](Cc1ccc(OC)cc1)NC(=O)[C@H](CC(C)C)NC(=O)CCCCC1CCSS1 (stereo partly drawn)
3. CCNC(=O)C(=O)[C@H](Cc1ccc(Cl)cc1)NC(=O)[C@@H](NC(=O)CCCCC1CCCS1)C(C)C (stereo partly drawn)

0.18
0.4
0.11

###

Tested on: cellular calpains in C2C12 myoblasts
Assay: Calpain inhibition assay in C2C12 myoblasts
Type: cell-based
Settings: 2 h incubation, calcium ionophore Br-A-23187, read-out: Calp I IC50 Myoblast
Please provide measured IC50 for the entries that follow.
One number for each entry, in nM.

# count of solved cases: 2
- COMPOUND: "CCNC(=O)C(=O)[C@H](Cc1ccc(Cl)cc1)NC(=O)[C@@H](NC(=O)CCCC1CCCS1)C(C)C (stereo partly drawn) [Example 5]"
  ASSAY RESULT: 2000
- COMPOUND: "CCNC(=O)C(=O)[C@H](Cc1ccc(C#N)cc1)NC(=O)[C@@H](NC(=O)CCCCC1CCS[S+]1[O-])C(C)C (stereo partly drawn) [Example 131]"
  ASSAY RESULT: 7500

Recall the reported IC50 of CCNC(=O)C(=O)[C@H](Cc1ccc(C)cc1)NC(=O)[C@@H](NC(=O)CCCCC1CCSS1)C(C)CC (stereo partly drawn) [Example 116] when tested on cellular calpains in C2C12 myoblasts.
1000

###

Molecular target: human μ-calpain (Homo sapiens, UniProt P07384)
Sequence (P07384 1-714): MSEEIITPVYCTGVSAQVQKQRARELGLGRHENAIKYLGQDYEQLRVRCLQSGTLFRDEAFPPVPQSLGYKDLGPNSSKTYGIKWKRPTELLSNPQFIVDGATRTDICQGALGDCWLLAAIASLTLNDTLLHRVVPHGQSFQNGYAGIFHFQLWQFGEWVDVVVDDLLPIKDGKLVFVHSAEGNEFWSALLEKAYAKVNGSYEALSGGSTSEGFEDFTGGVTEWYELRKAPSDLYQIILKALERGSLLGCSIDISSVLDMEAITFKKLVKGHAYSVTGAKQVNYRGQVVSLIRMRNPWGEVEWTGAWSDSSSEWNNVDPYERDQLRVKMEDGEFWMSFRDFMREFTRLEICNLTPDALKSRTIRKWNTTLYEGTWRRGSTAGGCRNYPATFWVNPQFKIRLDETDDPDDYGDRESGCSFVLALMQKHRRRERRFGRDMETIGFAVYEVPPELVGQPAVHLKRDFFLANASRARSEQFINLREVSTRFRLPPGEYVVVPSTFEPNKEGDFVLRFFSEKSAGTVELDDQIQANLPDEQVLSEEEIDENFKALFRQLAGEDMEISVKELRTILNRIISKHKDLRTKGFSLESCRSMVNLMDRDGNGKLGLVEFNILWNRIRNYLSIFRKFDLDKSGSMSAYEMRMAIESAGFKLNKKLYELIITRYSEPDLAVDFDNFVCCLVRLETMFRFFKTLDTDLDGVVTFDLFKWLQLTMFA
Sequence (P04632 1-268 partner): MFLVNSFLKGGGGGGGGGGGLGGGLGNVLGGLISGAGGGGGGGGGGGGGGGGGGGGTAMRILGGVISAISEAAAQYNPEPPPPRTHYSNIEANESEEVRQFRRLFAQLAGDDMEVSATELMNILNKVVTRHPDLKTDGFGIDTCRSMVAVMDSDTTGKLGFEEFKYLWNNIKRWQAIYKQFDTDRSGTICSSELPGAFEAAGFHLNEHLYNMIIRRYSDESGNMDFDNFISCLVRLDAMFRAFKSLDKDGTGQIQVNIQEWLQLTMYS
For each of the molecules below, state its log10(IC50).
For clarity, the numbers are log10 values of IC50 expressed in µM.

Example results:
- MOLECULE: "CCNC(=O)C(=O)[C@H](Cc1ccc(OC)cc1)NC(=O)[C@@H](NC(=O)c1ccccc1NC(=O)CCCCC1CCSS1)C(C)C (stereo partly shown)"
  SYSTEM TESTED: "human μ-calpain (Homo sapiens, UniProt P07384)"
  log10(IC50): -1.59
- MOLECULE: "CCNC(=O)C(=O)[C@H](Cc1ccc(Cl)cc1)NC(=O)[C@@H](NC(=O)CCCCNC(=O)CCCCC1CCSS1)C(C)C (stereo partly shown)"
  SYSTEM TESTED: "human μ-calpain (Homo sapiens, UniProt P07384)"
  log10(IC50): -1.00
- MOLECULE: "CCNC(=O)C(=O)[C@H](Cc1ccc(Br)cc1)NC(=O)[C@H](CC(C)C)NC(=O)CNC(=O)CCCCC1CCSS1 (stereo partly shown)"
  SYSTEM TESTED: "human μ-calpain (Homo sapiens, UniProt P07384)"
  log10(IC50): -1.40

Fill in log10(IC50) for each of the 4 molecules listed.
1. CCNC(=O)C(=O)[C@H](Cc1ccc(OC)cc1)NC(=O)[C@@H](NC(=O)C1(NC(=O)CCCCC2CCSS2)CC1)C(C)C (stereo partly shown)
2. CCNC(=O)C(=O)[C@H](Cc1ccc(Cl)cc1)NC(=O)[C@@H](NC(=O)CCCCC1SC[C@@H]2NC(=O)N[C@H]12)C(C)C (stereo partly shown)
3. CCNC(=O)C(=O)[C@H](Cc1cccs1)NC(=O)[C@H](CC(C)C)NC(=O)CCCCC1CCSS1 (stereo partly shown)
4. CCNC(=O)C(=O)[C@H](Cc1ccc(OC)cc1)NC(=O)[C@@H](NC(=O)C1(NC(=O)CCCCC2CCSS2)CCCCC1)C(C)C (stereo partly shown)

-0.43
-1.00
-1.40
-0.77

These data points were gathered from patent US20060258598A1.
